- Run description: yeast display, Sf9 membrane polyspecificity reagent, FACS + sequencing; frameworks hold sequencing errors

{"columns": ["Sequence content", "polyreactivity (PSR sort gate)"],
 "data": [
  ["QVQLVESAGGLVQAGGSLRLRCAASGRIFTHNAMGWYRQAPGKERELVAAITSGGRTTYADSVKGRFTISRDNAKNTVYLQMNSLKPEDSAVYYCNADTGLGSLDFDKRDYWGQGTQVTVSS", "low polyreactivity"],
  ["QVQLVESGGVLVQAGGSLRISSAASGRIFKVYAMGWYRQAPGKEREFVAVITGGGSTNYADSVKGRFTISRDNAKNTVYLQMNSLKPEDTGVYYCATEGYGHGGETDGGVYSDLGYWGQGTQVTVSS", "low polyreactivity"],
  ["QVQLVESGGGLVQAGGSLRLSCAASGRTFGWYAMGWYRQAPGKERELVAAISTRGTRTYYADSVKGRFTISRDNAKNTVYLQMNSLKPEDTAVYYCNAKRRAVTTAHGIPEEDYWGQGTQVTVSS", "high polyreactivity"],
  ["QVQLVESGGGLVQAGGSLRLSCAASGSTFYNNAMGWYRQAPGKERELVAVITDSGGRTYYADSVKGRFTISRDNAKNTVYLQMNSLKPEDTAVYYCAVVAPGGGDDYWGQGTQVTVSS", "low polyreactivity"],
  ["QVQLVDSGGGLVKAGGSLRISCPASGITLKYYSMGWYRPSPGKERELVAAITRSGVGTYYADSVKGRFTISRDNAKNTVYLQMNSLKPEDTAVYYCAARGGWLQTKYDYWGQGTQVTVSS", "high polyreactivity"]
]}

---

- Run description: yeast display, Sf9 membrane polyspecificity reagent, FACS + sequencing; frameworks hold sequencing errors

{"columns": ["Sequence content", "polyreactivity (PSR sort gate)"],
 "data": [
  ["QVQLVESGGGLVQAGGSLRLSCAASGLTLYRYAMGWYRQPPGKEREMVAGISWGGGSTYYADSVKGRFTISRDNAKNTVYLQMNSLKPEDTAVYYCAAGRLLYIPRYYYWGQGTQVTVSS", "high polyreactivity"],
  ["QVQLVESGGGLVQAGGSLRLSCAASGSTFSPYGMGWYRQAPGKERELVAAIRGRGGNTYYADSVKGRFTISRDNAKNTVYLQMNSLKPEDTAVYYCAAQSFAQYGWRYGDWGQGTQVTVSS", "high polyreactivity"]
]}

---

- Run description: yeast display, Sf9 membrane polyspecificity reagent, FACS + sequencing; frameworks hold sequencing errors
Measured parameter: polyreactivity (PSR sort gate)

{"columns": ["Sequence content", "Result"],
 "data": [
  ["QVQLVESGGGLVQAGGSLRLSCAASGRTYVDYAMGWYRQAPGKEREFDAAITWSGGSTYYADSVKGRFTISRDYAKNTVYLQMTSLKPEDTEVYYCNRDTNVGVLNYKFYDGPERDYWGQGTQVTVSS", "low polyreactivity"],
  ["QVQLVESGGGLVQAGGSLRLSCAASGSIFFRNAMGWYRQAPGKERELVAAITWNGGSTYYADSVKGRFTISRDNAKNTVYLQMNSLKPEDTAVYYCNKYYYYRDSGYWGQGTQVTVSS", "high polyreactivity"],
  ["QVQLVESGGGLLQAGGSLRLSCAASGRIFAQYAMGWYRQAPGKEREFDAGISTTGGSTYYADSVKGRFTISRDNAKNTVYLQMNSLKPEETAVYYCAADRRDRSPFYYWGQGTQVTVSS", "high polyreactivity"],
  ["QVQLVESGGGLVQAGGSLRLSCAASGFTFNKYAMGWYRQAPRKERELVAAISSSGGSTRYADSVKGRFTISRDNAKNTVYLQMISLKPEDTAVYYCAVYVTRDSGWWLYDYWGQGTQVTVSS", "high polyreactivity"],
  ["QVQLVESGGGLVQAGGSLRLSCAASGFTFGSNAMGWYRQAPGKEREFVAAITYSGGGTYADSVKGRFTISRDNAKNTVDLQMNSLKPEDTAVYYCATDAYRWHYWNFGFGYWGQGTQVTVSS", "high polyreactivity"],
  ["QVHLVESGGGLDQAGGSLRLSCAASGRTFKRYAMGWYRQAPGKETELVAAISWSGTSTYYADSVKGRFTISRDNAKNTVYLQMNSLKPEDTALYFCNTPHRSSSVRSYGYWGQGTQVTVSS", "high polyreactivity"],
  ["QVQLVESGGGLVQAGGSLRLSSAATGSIIGFYAMGWYRQAPGKERELVAAITRGGGSTFYADSVKGRFTISRDNAKNTVYLQINSLKPEDTAVYYCAATVYRYHGPGYYYWGQGTQVTVSS", "high polyreactivity"],
  ["QVQHVESVGGLVQAGGSLRLSCAASASIIYANTMGWYRQAPGKEREFVATITDSGAIKYYADSVKGRFTISRDNAKNTVYLQMNSLKPEDTAVYYCNADSIYSARGWLYGYWGQGTQVTVSS", "low polyreactivity"],
  ["QFQLVESGGGLVQAGGSLRLSCAASGFTFTVYAMGWYRQAPGKERELVAAITRGTSTYADSVKGRFTISRDNAKNTVYLQMNSLKPEDTAVYYCAARSSPWYTRYRSSELFDYWGQGTQVTVSS", "high polyreactivity"],
  ["QVQLVESGGGLVQAGGSLRLSCAASGFIFRINAMGWYRQAPGKERELVARITSGGSTYYADSVKGRFTISRDNAKNTVYLQMNSLKPEDTAVYYCAARVKYYGSQSRYYWGQVTQVTVSS", "high polyreactivity"],
  ["QVQLVESGGGIVQAGGSLRLSCAASGRIFYVNAMGWYRQSPGKERELVAAISRSGSSTYYADSVKGRFTISRDNAKNTVYLQMNSLKPEDTAVYYCAARYYGRSQHHFDYWGQGTQVTVSS", "high polyreactivity"],
  ["QVQILESGVGLVQPGGSLRLICAASGITLQFYALGWYRKATGKEAELVAAISISGGRTYYADSVKGRFTISRDNAKNTFYLQMNSLKPEDTAVYYCAAYLQRAYRYGYWGQGTQVTVSS", "high polyreactivity"],
  ["QVQLVESGGGLVQAGGSLRLSCAASGYTFKTNDMGRYRQAPGKEREFVAAIDSGGNTYYADSVKGRFTISRDNAKITVYLQMNSLIPEDTAVYYCGAYRDYQYDYWGQGTQVTVSS", "low polyreactivity"],
  ["HVQLVESGGGLVQAGGSLRLSCAASGNICYGYAMGGYRQAPGKERELVARINWSGSRTYYADSVKGRFTISRDNAKNTVYLQMNSLKPDDTAVYYCNTSTSRVPGNGDYWGQGTQVTVSS", "high polyreactivity"],
  ["QVQLVESGGGLVQAGGSLRLSCAASGFIFATYAMGWYRQAPGKERELVASINWSGGRTYYADSVKGRFTISRDNAKNTVYFQMNSLKPEDTEVYYCAARISTRYEYWGHGTQVTVSS", "high polyreactivity"],
  ["QVQHVESGGGLVQAGGSLRLSSAASGRIFPINAMGWYRQAPGKERELVAAISYSGGSTYYADSVKGRFTISRDNAKNTVYLQMNSLKPEDTAVFYCNARYPYSYYHRYYYWGQGTQVTVSS", "high polyreactivity"],
  ["QVQLVESGGGLVQAGGSLRLSCAASGRTFSPYPMGWYRQAPGKERELGAAINWTGGSTYYADSVKGRFTISRDNAKNTVYLQMNSLKPEVTAVYYCNADWWYGYDYWGQGTQVTVSS", "low polyreactivity"],
  ["QVQLVESGGGLVQAGGSLRLSCAASAGTFNHYAMGWSRQEPGKERELVASITNGASTYYADSVKGRFTISRDNAKNTVYLQMNILKPEDTAVYYCAKRGRVGKYRYEYWGQGTLVTVSS", "low polyreactivity"],
  ["QVQLQESGGGLVQAGGSLRLSCAASGTISYAPHMGWYRQAPGKERELVAGITIVGTTYYADSVKGRFTISRDNAKNTVYLQMNSLSPGDTAVYYCAAHSEQYTPFYYWGQGTQVTVSS", "low polyreactivity"],
  ["QVQLVESGGGLVQAGGSLRLSCAACGLTFGGYVMGWYRQAPGKVRELVAAISGSGGRTYYADSVKGRFTISRDNAKNTVYLQMNSLKPEDTAVYYCARPSRGPPRGYYWGKGTQVTVSS", "high polyreactivity"],
  ["QVQLVESGGGLVQAGGSLRLSCAASGIIIAYYAMGWYRQAPGKERVLVATISSGGRTKYADSVKGRFTISRDNAKNTVYLQMNSLKPEDTAVYYCNTDRYFRRYYWYDYWGQGTQVTVSS", "high polyreactivity"]
]}
